// data source = PubChem BioAssay (NCI)

Below: a set of entries, each annotated with reported TGI.
Test system: MOLT-4 leukemia
Assay: NCI tumour cell line growth inhibition, 48 h
EXPERIMENTAL_READOUT: TGI

> print(dat)
                                   compound  experimental.readout  data.value
1           CCOC(=O)c1cc(=O)c2cccc3c2n1CCS3                   TGI    > 100 µM
2                          N#CC1(CCCI)CCCC1                   TGI    > 100 µM
3  O=C(NC(CS)C(=O)O)c1c2ccccc2nc2ccccc12 (stereo not given)                   TGI    > 100 µM
4                C=C(CN(C)C)C(=O)c1ccccc1OC                   TGI   > 20.8 µM
5  CCCCCN(CCCCC)CCC[C@@H](C)[C@H]1CC[C@H]2[C@@H]3[C@H](OCCCN)C[C@@H]4C[C@H](OCCCN)CC[C@]4(C)[C@H]3C[C@H](OCCCN)[C@]12C                   TGI     14.4 µM

====

Tested on: MOLT-4 leukemia
Experiment: NCI tumour cell line growth inhibition, 48 h
EXPERIMENTAL_READOUT: TGI

> print(dat)
                                   molecule  data.value
1           O=C1Nc2cccc(Cl)c2/C1=C\c1cccnc1     10.2 µM
2  CCCN(CCC)c1ccc(/C=N/NC(=O)c2cccnc2)c(C)c1     42.6 µM
3  C[C@]12CC[C@H]3[C@@H](CC=C4C[C@@H](O)CC[C@@]43C)[C@@H]1C/C(=C\c1ccncc1)[C@@H]2O     61.9 µM
4  CC1(C)CN(CC(=O)O)CC(Cc2ccc(OCC(=O)O)cc2)N(CC(=O)O)CC(C)(C)SS1 (configuration not stated)    > 100 µM
5  O=C1OC2(c3ccc(O)cc3Oc3cc(O)ccc32)c2cccc3cccc1c23    > 100 µM
6  CCS1=C2C(=O)CC(C)(C)CC2=Nc2ccccc21 (configuration not stated)    > 100 µM
7  O=c1[nH]c(-c2ccc(Cl)c(Cl)c2)cn1-c1ccc(Cl)cc1     38.9 µM

====

System: T-47D breast
Assay: NCI tumour cell line growth inhibition, 48 h
Below: a set of entries, each annotated with reported TGI.

SMILES_CODE	PREFIX_OPERATOR	TGI (µM)
Oc1ccc(N=Nc2ccc(Br)cc2)c(O)c1	=	42.3
O=C1c2cc3c(cc2CC12Cc1ccccc1C2)CCC3	>	100
CC(C)CCN(CCC(C)C)CC(=O)Nc1ccc(S(=O)(=O)c2ccc(NC(=O)CN(CCC(C)C)CCC(C)C)cc2)cc1	=	4.29
Cn1cc(NC(=O)Nc2cc(C(=O)Nc3cc(C(=O)Nc4ccc5cc(S(=O)(=O)O)cc(S(=O)(=O)O)c5c4)n(C)c3)n(C)c2)cc1C(=O)Nc1cc(C(=O)Nc2ccc3cc(S(=O)(=O)O)cc(S(=O)(=O)O)c3c2)n(C)c1	>	100

====

Tested on: HT29 colon
Experiment: NCI tumour cell line growth inhibition, 48 h
Where a SMILES comes first, the peptide text is derived from it. [ ]: non-standard residue; d: D form. The star is where a group is joined. ξ: configuration not given here. ξD = NC(CC(=O)O)C(=O)O; Boc = CC(C)(C)OC(=O)*; Aib = CC(C)(N)C(=O)O; OBn = c1ccc(CO*)cc1

MOLECULE	TGI
Cc1cc(C)c(/C=C2\C(=O)Nc3ccccc32)[nH]1	> 100 µM
CC(C)(C)OC(=O)NC(CC(=O)OCc1ccccc1)C(=O)NC(C)(C)C(N)=O (stereo not given) (Boc-[ξD](OBn)-[Aib]-NH2)	> 100 µM
O=C(N/C(=C\c1ccccc1)c1nc2ccccc2c(=O)o1)c1ccccc1	> 100 µM
S=C(NCCc1ccccn1)N/N=C(\c1ccccc1)c1ccccn1	21.7 µM
c1cc(OCCN2CCCC2)ccc1CNc1ccc2nc(CCC3CCCCC3)[nH]c2c1	2.23 µM
N#CC(NNC(=O)Cc1ccccc1)c1ccc([N+](=O)[O-])cc1 (stereo not given)	> 100 µM
CC(C)[C@@]12C[C@@H](OC(=O)C3CO3)[C@@](C)(O1)[C@@H]1CC[C@@H](C)[C@H]1[C@@H]2OC(=O)/C=C/c1ccccc1 (stereo not given in full)	> 100 µM
CC1(C)CN(CC(=O)O)CC(Cc2ccc(OCC(=O)O)cc2)N(CC(=O)O)CC(C)(C)SS1 (stereo not given)	> 100 µM
CC(C)CNC1=NCC(C)S1 (stereo not given)	> 100 µM
CC[C@]12CN3CCc4c([nH]c5ccccc45)[C@@](C(=O)OC)(c4cc5c(cc4OC)N(C)[C@H]4[C@@](O)(C(=O)OC)[C@H](OC(C)=O)[C@]6(CC)C=CCN7CC[C@]54[C@@H]76)CC(C3)[C@H]1O2 (stereo not given in full)	> 73.5 µM
Cc1cc(C)c2c(=O)n(CC(O)CN(Cc3ccccc3)CC(O)Cn3sc4nc(C)cc(C)c4c3=O)sc2n1 (stereo not given)	37.4 µM
Cc1[nH]c2ncn3[nH]c(=S)nc3c2c1Cc1ccccc1	> 100 µM
CC(C(=O)NCNC(=O)c1ccccc1)C(=O)Nc1ccccc1 (stereo not given)	> 100 µM
CCCCCCCCCCCCCCCCn1cc[n+](C)c1	1.25 µM
COc1cc2c(c(OC)c1OC)-c1ccc(SC)c(=O)cc1[C@@H](NC(=O)c1cccc([N+](=O)[O-])c1)CC2	0.0708 µM
Cc1nc(C(N)=S)sc1C(=O)CC(=O)C(=O)Nc1ccc(Br)cc1	> 100 µM
Cc1ccc(C(=O)NC2CCCCC2)cc1N=NN(C)C	> 100 µM
CC(NNC(=O)c1ccncc1)c1ccccc1 (stereo not given)	> 100 µM
OCc1ccc(-c2nc(-c3ccc4c(c3)OCO4)c(-c3ccccn3)[nH]2)cc1	> 25 µM
CCCCCSc1ccc2nc(NC(=O)OCC)sc2c1	> 100 µM
NC(=O)N/N=C(\CC1OC(=O)c2ccccc21)c1ccc([N+](=O)[O-])cc1 (stereo not given)	> 100 µM
CC(=O)OC(C(=O)O)C(OC(C)=O)C(OC(C)=O)C(OC(C)=O)C(=O)O (stereo not given)	> 100 µM
C=C(C)CC(C(=O)O)c1ccc(C)cc1 (stereo not given)	> 100 µM
Cc1nc2ccc(Cl)cc2c2c1CCN2c1ccc(F)cc1	> 100 µM
O=C(Nc1ccc(Cl)c(C(F)(F)F)c1)Nc1ccc(-c2cccnc2)cc1N1CCC(CO)CC1	4.02 µM
O=C(Nc1ccc(I)cc1F)c1cc(Br)ccc1O	> 35.1 µM
Cc1ccc(-c2cc(C(=O)Nc3ccc(S(=O)(=O)N4CCCCC4)cc3)[nH]n2)c(O)c1	> 100 µM
Cn1c(=O)c2c(nc3n2CCCC(=O)N3CCCCl)n(C)c1=O	> 100 µM
Cc1cccc2c(=O)c3c(sc12)c(NCCCNCCO)nc1ccccc13	3.2 µM
C=CC12CCCCC1CC(C(=O)OC)=C(O)C2 (stereo not given)	> 100 µM
COc1cccc(/C=N\NC(=O)c2ccncc2)c1O	> 100 µM
O=C(CCN1CCCCC1)Nc1ccc2c(c1)C(=O)c1ccc(NC(=O)CCN3CCCCC3)cc1C2=O	9.99 µM
CCc1cccc(C(C)C)c1NC(=O)/C(=N\NC(N)=O)C(C(=O)OC)c1cnc2ccccc2n1 (stereo not given)	> 100 µM
C/C(=C/CC[C@](C)(OC1OC(CO)C(O)C(O)C1O)[C@H]1CC[C@]2(C)[C@@H]1CC[C@@H]1[C@@]3(C)CC[C@H](O)C(C)(C)[C@@H]3C[C@H](O)[C@]12CO)CO (stereo not given in full)	> 100 µM
CC1(C)C(=O)/C=C\C(=O)C(C)(C)C2=CC=C(O2)C(C)(C)C(=O)C(Br)C(Br)C(=O)C(C)(C)C2=CC=C1O2 (stereo not given)	> 100 µM
COc1cc(C2c3cc4c(cc3OC(NNC(N)=S)C2C)OCO4)cc(OC)c1OC (stereo not given)	2.6 µM
CC(=O)OCC12CC(CC1OC(C)=O)c1ccccc12 (stereo not given)	> 100 µM
CCOc1ccccc1/C=N\N=C(N/N=C/c1ccccc1OCC)N/N=C/c1ccccc1OCC	> 100 µM
COc1ccc(C2(CC(C)C)CCNC2)cc1OC (stereo not given)	> 100 µM
COc1ccccc1NC1Oc2cc3c(cc2C(c2cc(OC)c(OC)c(OC)c2)C1C)OCO3 (stereo not given)	> 100 µM

====

Below: a set of entries, each annotated with reported TGI.
System: NCI-H226 lung
Assay: NCI tumour cell line growth inhibition, 48 h
EXPERIMENTAL_READOUT: TGI

> print(dat)
                                    compound  experimental.readout  data.value
 1  COc1ccc(C2(Cl)C(Cl)(C(F)(F)F)C2(Cl)C(F)(F)F)cc1 (centres undefined)                   TGI     28.9 µM
 2  CCOC(=O)C1=C(C(=O)OCC)SC2(S1)C(C(=O)OCC)=C(C(=O)OCC)Sc1c2ssc1=O                   TGI     42.2 µM
 3  COC(=O)/C=C1\CCC2[C@@H](C(=O)CC3[C@]2(C)CCC[C@@]3(C)C(=O)OC)C1C (some centres undefined)                   TGI     56.6 µM
 4  COC(=O)c1c2c(c(C)[n+]([O-])c1C)C(=O)C(NCc1ccccc1)=CC2=O                   TGI      9.9 µM
 5        CC(C)C1=Cc2ccc3c(c2C(=O)C1=O)CCCC3                   TGI     36.1 µM
 6  COC(=O)C(Cc1nc2ccc(Cl)cc2[nH]c1=O)C(=O)C(=O)Nc1cc(C)ccc1C (centres undefined)                   TGI    > 100 µM
 7  CC(=O)C1C(=O)C(=O)N(c2ccc([N+](=O)[O-])cc2[N+](=O)[O-])C1=O (centres undefined)                   TGI    > 100 µM
 8  CCN1/C(=C/C(C)=C/c2sc3ccc4ccccc4c3[n+]2CC)Sc2ccc3ccccc3c21                   TGI     1.27 µM
 9  N#CC(NNC(=O)Cc1ccccc1)c1ccc([N+](=O)[O-])cc1 (centres undefined)                   TGI    > 100 µM
10  CC1OC(n2cc(F)c(=O)[nH]c2=O)CCC1=O (centres undefined)                   TGI    > 100 µM
11                      Cc1n[nH]c(=O)n1C1CC1                   TGI    > 100 µM
12   O=C1N[C@H]2C(=O)c3c(Br)sc(Br)c3[C@H]2O1                   TGI     34.6 µM
13  CC1(C)C(=O)/C=C\C(=O)C(C)(C)C2=CC=C(O2)C(C)(C)C(=O)C(Br)C(Br)C(=O)C(C)(C)C2=CC=C1O2 (centres undefined)                   TGI    > 100 µM
14          COc1cccc(/C=N\NC(=O)c2ccncc2)c1O                   TGI    > 100 µM
15         ClCc1ccccc1Cn1cnc2nc(Cl)nc(Cl)c21                   TGI     9.52 µM
16                         O=CN/C=C/c1ccccc1                   TGI    > 100 µM
17  CC(=O)OCC1OC(SC2=N/C(=C\c3ccc(Br)s3)C(=O)N2c2ccccc2)C(OC(C)=O)C(OC(C)=O)C1OC(C)=O (centres undefined)                   TGI    > 100 µM
18  Nc1nc(Sc2ccc([N+](=O)[O-])c3nonc23)c2ncn(C3OC(CO)C(O)C3O)c2n1 (centres undefined)                   TGI       29 µM
19  Cc1ccc(S(=O)(=O)C2=Cc3ccccc3C2(O)c2ccccc2)cc1 (centres undefined)                   TGI     64.5 µM
20  COc1cc(-n2cc(-c3ccc(Cl)cc3)n(-c3ccccc3)c2=O)cc(OC)c1OC                   TGI     97.1 µM
21            COc1ccc2c(n1)Sc1nc3ccccc3nc1N2                   TGI       34 µM
22  O=C1OC(c2ccc(O)cc2)(c2ccc(O)cc2)c2ccc(Cl)c3cccc1c23 (tested in a mixture with another compound)                   TGI       34 µM
23       FC(F)(F)c1ccc2c(-c3cc[nH]c3)ccnc2c1                   TGI    > 100 µM
24        O=C1c2ccccc2CC12Cc1cc3c(cc1C2)CCC3                   TGI    > 100 µM
25  NC1=NN(c2ccccc2)C(=O)C1C(=O)C(=O)Nc1ccccc1 (centres undefined)                   TGI    > 100 µM
26  CC(C)[C@@]12C[C@@H](OC(=O)C3CO3)[C@@](C)(O1)[C@@H]1CC[C@@H](C)[C@H]1[C@@H]2OC(=O)/C=C/c1ccccc1 (some centres undefined)                   TGI     29.3 µM
27  Cc1nnn(C)c1-c1cnc2c3ccc(C(C)(C)O)cc3n([C@H](c3ccccc3)C3CCOCC3)c2c1                   TGI     23.4 µM
28  Cc1nc2ccccc2c(=O)n1/N=C(\N=Nc1ccccc1)c1ccccc1Cl                   TGI    > 100 µM
29  Cc1cccc(N=Nc2c(C)nn(C(=O)CC(=O)Nc3ccc(Cl)cc3)c2C)c1                   TGI    > 100 µM
30  CCc1cccc(C(C)C)c1NC(=O)/C(=N\NC(N)=O)C(C(=O)OC)c1cnc2ccccc2n1 (centres undefined)                   TGI    > 100 µM
31  CCOc1ccccc1/C=N\N=C(N/N=C/c1ccccc1OCC)N/N=C/c1ccccc1OCC                   TGI    > 100 µM
32  CN(C)CC1(C)CC/C(=C\c2ccc(Cl)cc2)C1=O (centres undefined)                   TGI    > 100 µM
33  COc1cccc(C2=NC(C(C)C)CO2)c1OC (centres undefined)                   TGI    > 100 µM
34  O=S(=O)(c1ccccc1)C1CC(c2nc3ccccc3[nH]2)=NO1 (centres undefined)                   TGI    > 100 µM
